tested on: OE19; experiment: cells; format: functional, cell-based, Homo sapiens; settings: Homo sapiens, OE19;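 note: growth inhibition of OE19 cells, measured through a cell viability read-out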
Description: SANGER: Inhibition of human OE19 cell growth in a cell viability assay.
readoutType: IC50

Reference set (6 entries):
molecule	IC50
Nc1cccc2c1CN(C1CCC(=O)NC1=O)C2=O (stereo not drawn) [LENALIDOMIDE]	> 5 µM
COc1cc2c(Nc3ccc(NC(=O)c4ccccc4)cc3)ncnc2cc1OCCCN1CCOCC1	> 4 µM
C=C(c1ccc(C(=O)O)cc1)c1cc2c(cc1C)C(C)(C)CCC2(C)C [BEXAROTENE]	> 8 µM
O=C(O)c1ccc(-c2c[nH]c3ncc(-c4ccccc4)cc23)cc1C1CCCC1 [GSK-650394]	> 16 µM
Cc1cc([N+](=O)[O-])ccc1NS(=O)(=O)c1cc(Cl)ccc1Cl	3.78 µM
CN(C)C(=N)NC(=N)N [METFORMIN]	> 20000 µM

I would be grateful if you could share the reported IC50 for CC1(C)CNc2cc(NC(=O)c3cccnc3NCc3ccncc3)ccc21 [MOTESANIB] . > 2 µM

I would be grateful if you could share the reported IC50 for `CC(C)c1ccccc1Cc1cc(C(=O)Nc2ccc(S(=O)(=O)c3ccccc3C(C)(C)C)cc2)c(O)c(O)c1O` . 5.98 µM

* * *

test system: GOTO; test: cells; format: functional, cell-based, Homo sapiens; settings: Homo sapiens, GOTO;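 note: growth inhibition of GOTO cells, read out by a cell viability assay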
Description: SANGER: Inhibition of human GOTO cell growth in a cell viability assay.
Entries and their measured pIC50 follow.
In textbook form, pIC50 equals minus log to base ten of the concentration in mol/L.

COc1cccc2c1C(=O)c1c(O)c3c(c(O)c1C2=O)C[C@@](O)(C(=O)CO)C[C@@H]3O[C@H]1C[C@H](N)[C@H](O)[C@H](C)O1 6.54

Please tell me: pIC50 of `CC(C)c1ccccc1Cc1cc(C(=O)Nc2ccc(S(=O)(=O)c3ccccc3C(C)(C)C)cc2)c(O)c(O)c1O` , system GOTO? 6.77

* * *

system: NCI-H526; test: cells; assay type: functional, cell-based, Homo sapiens; conditions: nci-h526
Description: SANGER: Inhibition of human NCI-H526 cell growth in a cell viability assay.
readoutType: IC50 (nM)
Give a bare numeral; the unit nM is implied.

I would be grateful if you could share the reported IC50 for `CISPLATIN` . 2060

* * *

Entries and their measured IC50 follow.
tested on: NCI-H526; assay: cells; format: functional, cell-based, Homo sapiens; details: Homo sapiens, NCI-H526;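 note: growth inhibition of the human NCI-H526 cell line, measured by a cell viability assay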
Counter-ions that a name gives are not always drawn.

Reference set (5 entries):
molecule	IC50
CCN(CC)CCCCNc1ncc2cc(-c3cc(OC)cc(OC)c3)c(NC(=O)NC(C)(C)C)nc2n1	> 2 µM
CCC/C=C/C=C/C(=O)O[C@H]1/C(=C/C(=O)OC)C[C@H]2C[C@H]([C@@H](C)O)OC(=O)C[C@H](O)C[C@@H]3C[C@H](OC(C)=O)C(C)(C)[C@](O)(C[C@@H]4C/C(=C/C(=O)OC)C[C@H](/C=C/C(C)(C)[C@]1(O)O2)O4)O3	> 0.008 µM
COc1cc(N2CCN(C)CC2)ccc1Nc1ncc2c(n1)N(C)c1ccccc1C(=O)N2C	> 8 µM
COc1cc2ncn(-c3cc(OCc4ccccc4S(C)(=O)=O)c(C#N)s3)c2cc1OC [GSK-319347A]	> 5 µM
Oc1ccc2ccccc2c1SSc1c(O)ccc2ccccc12	> 32 µM

I would be grateful if you could share the reported IC50 for COC1=CC(c2cc3ccccc3[nH]2)=N/C1=C\c1[nH]c(C)cc1C [OBATOCLAX MESYLATE] . 2.63 µM

I would be grateful if you could share the reported IC50 for `Nc1ccn([C@@H]2O[C@H](CO)[C@@H](O)C2(F)F)c(=O)n1` . 0.11 µM
